assay system: acetyl-CoA synthetase (Acs1Mt) (Methanothermobacter thermautotrophicus)
Sequence (O26319 1-558): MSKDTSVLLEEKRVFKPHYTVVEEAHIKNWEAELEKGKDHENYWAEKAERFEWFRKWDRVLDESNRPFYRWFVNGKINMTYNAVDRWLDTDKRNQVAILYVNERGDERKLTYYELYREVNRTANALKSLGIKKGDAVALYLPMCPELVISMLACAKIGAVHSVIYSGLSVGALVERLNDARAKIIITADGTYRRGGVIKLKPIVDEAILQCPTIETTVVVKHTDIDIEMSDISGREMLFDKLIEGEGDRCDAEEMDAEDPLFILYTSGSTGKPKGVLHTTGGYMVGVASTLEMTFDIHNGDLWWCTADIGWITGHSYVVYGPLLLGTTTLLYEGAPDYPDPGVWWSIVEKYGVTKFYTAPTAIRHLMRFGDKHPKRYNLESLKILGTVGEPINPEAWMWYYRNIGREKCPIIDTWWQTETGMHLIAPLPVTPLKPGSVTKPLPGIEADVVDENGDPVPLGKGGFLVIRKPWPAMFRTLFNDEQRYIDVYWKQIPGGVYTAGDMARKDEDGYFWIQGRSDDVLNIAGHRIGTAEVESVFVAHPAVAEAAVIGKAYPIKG
pKi: −log10 of the molar value.

{"structure notation": "O=C[C@H](O)[C@H](O)[C@H](O)CO", "pKi": 1.28}
